Give measured MIC values for each item. Keep answers brief.
System: Micrococcus luteus ATCC 4698
Assay: In vitro antibacterial activity, MIC by agar dilution
Format: cell-based
Conditions: BHI agar, 35-37°C, 20-24 hours, unit assumed
Structures can show the parent of a compound that is named as a salt.
Provide only the numeric value, understood in µg/mL.

Tell me the measured MIC values of CN1CCN(c2nc3c(-c4ccc(F)cc4)cc(C(=O)O)c(=O)n3cc2F)CC1 [Example 2] , please.
25

Tell me the measured MIC values of NC1CCN(c2nc3c(C4CC4)cc(C(=O)O)c(=O)n3cc2F)C1 (stereo not drawn) [Example 157, hydrochloride salt] , please.
1.56

Tell me the measured MIC values of CCc1cc(C(=O)O)c(=O)n2ccc(N3CCC(N)C3)cc12.Cl (stereo not drawn) , please.
12.5

Tell me the measured MIC values of CC(=O)N[C@H]1C[C@H](C)N(c2nc3c(-c4ccc(F)cc4F)cc(C(=O)O)c(=O)n3cc2F)C1 , please.
0.39

---

Tested on: Streptococcus agalactaciae CMX 508
Assay: In vitro antibacterial activity, MIC by agar dilution
Format: cell-based
Conditions: BHI agar, 35-37°C, 20-24 hours, unit assumed
Structures can show the parent of a compound that is named as a salt.
Measured attribute: MIC values (µg/mL)
Provide only the numeric value, understood in µg/mL.

Tell me the measured MIC values of CN1CCN(c2nc3c(-c4ccc(F)cc4)cc(C(=O)O)c(=O)n3cc2F)CC1 [Example 2] , please.
12.5

Tell me the measured MIC values of NC1CCN(c2nc3c(C4CC4)cc(C(=O)O)c(=O)n3cc2F)C1 (centres unmarked) [Example 157, hydrochloride salt] , please.
1.56

Tell me the measured MIC values of O=C(O)c1cc(C2CC2)c2nc(N3CCNCC3)c(F)cn2c1=O , please.
12.5

Tell me the measured MIC values of CC(C)(C)OC(=O)NC1CCN(c2nc3c(-c4ccc(F)cc4F)cc(C(=O)O)c(=O)n3cc2F)C1 (centres unmarked) , please.
1.56

Tell me the measured MIC values of CCC[C@H](N)C(=O)NC1CCN(c2nc3c(-c4ccc(F)cc4F)cc(C(=O)O)c(=O)n3cc2F)C1 (some centres unmarked) [Example 166, hydrochloride salt] , please.
3.1

Tell me the measured MIC values of CN1CCN(c2nc3c(C4CC4)cc(C(=O)O)c(=O)n3cc2F)CC1 , please.
12.5

---

System: Pseudomonas aeruginosa K799/61
Experiment: In vitro antibacterial activity, MIC by agar dilution
Format: cell-based
Details: BHI agar, 35-37°C, 20-24 hours, unit assumed
Where a name gives a salt, the structure may show the parent alone.
Please note: MIC values exactly at 0.4 µg/mL is rule not met. Only values below 0.4 µg/mL get rule met.

Say whether its MIC values is strictly beneath 0.4 µg/mL. Entry: CN1CCN(c2nc3c(C4CC4)cc(C(=O)O)c(=O)n3cc2F)CC1
rule not met

Say whether its MIC values is strictly beneath 0.4 µg/mL. Entry: O=C(O)c1cc(-c2ccc(F)cc2F)c2nc(N3CCC(O)C3)c(F)cn2c1=O (stereo not drawn)
rule met

Say whether its MIC values is strictly beneath 0.4 µg/mL. Entry: CCc1cc(C(=O)O)c(=O)n2ccc(N3CCC(N)C3)cc12.Cl (stereo not drawn)
rule met

Say whether its MIC values is strictly beneath 0.4 µg/mL. Entry: CCc1cc(C(=O)O)c(=O)n2ccc(N3CCN(C)CC3)cc12.Cl
rule not met

Say whether its MIC values is strictly beneath 0.4 µg/mL. Entry: CCc1cc(C(=O)O)c(=O)n2ccc(N3CCNC(C)C3)cc12.Cl (stereo not drawn)
rule not met

Say whether its MIC values is strictly beneath 0.4 µg/mL. Entry: NC1CCN(c2nc3c(C4CC4)cc(C(=O)O)c(=O)n3cc2F)C1 (stereo not drawn) [Example 157, hydrochloride salt]
rule met

Say whether its MIC values is strictly beneath 0.4 µg/mL. Entry: C[C@H](N)C(=O)N[C@@H](C)C(=O)NC1CCN(c2nc3c(-c4ccc(F)cc4F)cc(C(=O)O)c(=O)n3cc2F)C1 (stereo partly drawn) [Example 168, hydrochloride]
rule not met

Say whether its MIC values is strictly beneath 0.4 µg/mL. Entry: NC1CCN(c2nc3c(-c4c(F)c(F)c(F)c(F)c4F)cc(C(=O)O)c(=O)n3cc2F)C1 (stereo not drawn) [Example 172, hydrochloride salt]
rule not met

Say whether its MIC values is strictly beneath 0.4 µg/mL. Entry: C[C@H]1C[C@H](N)CN1c1nc2c(-c3ccc(F)cc3F)cc(C(=O)O)c(=O)n2cc1F [Example 171, hydrochloride]
rule met

Say whether its MIC values is strictly beneath 0.4 µg/mL. Entry: NC1CCN(c2nc3c(-c4ccc(F)cc4F)cc(C(=O)O)c(=O)n3cc2F)C1 (stereo not drawn)
rule met

Say whether its MIC values is strictly beneath 0.4 µg/mL. Entry: O=C(O)c1cc(C2CC2)c2nc(N3CCNCC3)c(F)cn2c1=O
rule met

Say whether its MIC values is strictly beneath 0.4 µg/mL. Entry: C[C@H](N)C(=O)NC1CCN(c2nc3c(-c4ccc(F)cc4F)cc(C(=O)O)c(=O)n3cc2F)C1 (stereo partly drawn) [Example 167, hydrochloride]
rule not met

Say whether its MIC values is strictly beneath 0.4 µg/mL. Entry: O=C(O)c1cc(C2CC2)c2nc(N3CCOCC3)c(F)cn2c1=O
rule not met

Say whether its MIC values is strictly beneath 0.4 µg/mL. Entry: CC(C)(C)OC(=O)NC1CCN(c2nc3c(-c4ccc(F)cc4F)cc(C(=O)O)c(=O)n3cc2F)C1 (stereo not drawn)
rule not met

Say whether its MIC values is strictly beneath 0.4 µg/mL. Entry: O=C(O)c1cn(C2CC2)c2cc(N3CCNCC3)c(F)cc2c1=O [Cntl, Ciprofloxacin, reference compound]
rule met

Say whether its MIC values is strictly beneath 0.4 µg/mL. Entry: C[C@H](N)C(=O)N[C@@H](C)C(=O)N[C@H]1C[C@H](C)N(c2nc3c(-c4ccc(F)cc4F)cc(C(=O)O)c(=O)n3cc2F)C1 [Example 173, hydrochloride]
rule not met
